Target: T1, hAMY3R (human, UniProt P30988)
T1 sequence 1: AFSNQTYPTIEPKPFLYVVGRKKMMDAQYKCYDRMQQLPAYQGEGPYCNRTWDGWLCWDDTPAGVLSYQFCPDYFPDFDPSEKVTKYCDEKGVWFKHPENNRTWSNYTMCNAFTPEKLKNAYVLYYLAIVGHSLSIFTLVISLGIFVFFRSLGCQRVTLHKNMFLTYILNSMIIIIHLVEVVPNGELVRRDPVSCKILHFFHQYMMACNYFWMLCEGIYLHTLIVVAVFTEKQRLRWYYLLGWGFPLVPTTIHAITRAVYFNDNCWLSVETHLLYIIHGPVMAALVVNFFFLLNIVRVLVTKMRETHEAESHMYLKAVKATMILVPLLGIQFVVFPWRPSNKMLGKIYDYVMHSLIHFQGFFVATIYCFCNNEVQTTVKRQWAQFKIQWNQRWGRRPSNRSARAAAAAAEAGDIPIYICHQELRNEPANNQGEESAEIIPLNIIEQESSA
T1 sequence 2: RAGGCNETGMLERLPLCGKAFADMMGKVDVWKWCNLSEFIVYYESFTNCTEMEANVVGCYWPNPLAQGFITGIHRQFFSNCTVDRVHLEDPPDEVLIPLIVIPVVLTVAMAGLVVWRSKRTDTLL
Experiment: cell-based or functional assay
Numbered stars: 1 amine (or outer) side, 2 acyl side, 3 side chain; on linkers, the order of the positions; unused ones are H or OH. Bridge positions count the residues as written; N and C are the ends. Square brackets hold non-standard residues; d marks the D form. Side chains are listed from the residue outwards. Ends that are not written are not given here. * marks the point of attachment. C20 diacid = O=C(O)CCCCCCCCCCCCCCCCCCC(=O)*; γGlu = O=C(O)[C@H](CCC(=O)[*:2])N[*:1]; Hyp = O=C(O)[C@@H]1C[C@@H](O)CN1; NMeI = CC[C@H](C)[C@H](NC)C(=O)O; AEEA = NCCOCCOCC(=O)O; Sar = CNCC(=O)O
Reported hAMY3R EC50 (cAMP) values are given for each entry in this list.
observation type: hAMY3R EC50 (cAMP) (pM)

INSERT INTO results (binder, reported_result) VALUES
  ('{C20 diacid-γGlu}-RCQTATCATERLAHFLQRSSF[Sar]A[NMeI]LSSTEVGSNT[Hyp]-NH2 (disulfide 2-7 (inferred); not fully specified; ends not checked) [SEQ ID NO: 80]', 15),
  ('GCRFGTCTVQWLANFLYQFTDKDKDNVAPRTNVGPQGY [SEQ ID NO: 311]', 60),
  ('KCNTATCTVQRLAHQIYQFTDKDKDNVAPRTKVGSNG[Hyp]-NH2 (disulfide 2-7 (inferred); ends not checked) [SEQ ID NO: 20]', 8),
  ('KCNTATCTVQRLAEQIYQFK([AEEA-AEEA-γGlu-C20 diacid])DKDKDNVAPPTNVGSNG[Hyp]-NH2 (disulfide 2-7 (inferred); not fully specified; ends not checked) [SEQ ID NO: 89]', 15);
